pEC50 overview
method: CaMKII Cell-Based Activity: CaMKII activity in neonatal rat ventricular myocytes (NRVM) was measured by monitoring the phosphorylation level of phospholamban using high-content imaging. NRVMs were plated in a clear bottom 384-well plate in medium supplemented with 10% fetal bovine serum (FBS) and incubated at 37° C., 5% CO2 overnight. The medium was changed to a serum-free medium and compounds were dosed to the cells. The cells were incubated at 37° C., 5% CO2 for 4 hours and were then treated with 100 nM ATX-II (Alomone Labs) to activate CaMKII. 10 minutes after the addition of ATX-II, the cells were fixed with 4% formaldehyde followed by permeabilization with 0.1% triton X100. The fixed cells were stained with an anti-phospho-phospholamban primary antibody (Santa Cruz Biotechnology) and an Alexa488-labeled anti-rabbit IgG secondary antibody (Life Technologies Corporation) as well as Hoechst 33342 (Life Technologies Corporation). The cells were imaged using an ArrayScan VTI (Cellomics) and analyzed for cells containing a positive fluorescent signal at 485 nm, reported as % responder. The % responders were plotted against the compound concentration to determine the compounds EC50.
pEC50: −log10 of the molar value.

test-smiles	pEC50
CCN(CC)[C@@H](C)CNC(=O)c1cc(-c2cnn3ccc(-c4cncnc4)nc23)nc(N2CC(OC)C2)c1	6.28
CCN(CC)[C@@H](C)CNC(=O)c1cc(-c2cnn3ccc(-c4cccs4)nc23)nc(N2CCCS2(=O)=O)c1	7.95
CCN(CC)[C@@H](C)CNC(=O)c1cc(-c2cnn3ccc(-c4cccs4)nc23)nc(N2CC[C@H]2C(=O)N2CCOCC2)c1	7.67
CCN(CC)[C@@H](C)CNC(=O)c1cc(NCCCO)nc(-c2cnn3ccc(-c4cccs4)nc23)c1	7.31
CN(C)c1cc(C(=O)N2CC[C@H](N)C2)cc(-c2cnn3ccc(-c4cccs4)nc23)n1	6.67
O=C(NC[C@@H]1CCCN1)c1ccnc(-c2cnn3ccc(-c4cccs4)nc23)c1	6.90
CCN[C@@H](CO)CNC(=O)c1ccnc(-c2cnn3ccc(-c4ccccc4)nc23)c1	6.61
CCN(CC)CCNC(=O)c1cc(-c2cnn3ccc(-c4cccs4)nc23)nc(N2CC(OC)C2)c1	7.04

Numbers sourced from ChEMBL document CHEMBL5725801.
